biological target: autotaxin (ATX, ENPP2) (Mus musculus); construct: recombinant ATX; mouse ENPP proteins expressed in HEK293A cells (culture supernatants); assay: colorimetric phosphodiesterase assay with p-nitrophenyl TMP as substrate
measured.quantity: IC50

QUERY: Find IC50 (autotaxin (ATX, ENPP2) (Mus musculus)) for the entry CCCCCn1c(-c2ccc(C(=O)NCCN3CCOCC3)cc2)cc(=O)n2cc(-c3ccc(Cl)cc3)nc12 [S15-00826]
RESULT: ~38 nM

Values from paper PMC5509998
